Recorded EC50 by entry
Target: human GPR40 (Homo sapiens)
Construct: expressed in transfected cells; host or cells: HEK cells stably expressing the aequorin reporter
Assay: Inositol Phosphate Turnover (IP1) Assay 1
Assay type: cell-based
Details: HEK cells stably expressing human GPR40; 15,000 cells per well; compound transferred via pocket tip; CisBio IP-One kit
Use nM as the unit, but write only the number.

Here's what some known entries look like.
- COc1ccc(F)c(-c2ccc(C3CCc4ccc([C@H](C5CC5)[C@H](C)C(=O)O)cc4O3)cc2CN)c1 (mixture of isomers) [Example 2]: 2990
- COc1cc(-c2ccc(C3CCc4ccc([C@H](C5CC5)[C@H](C)C(=O)O)cc4O3)cc2CN(C)C)c(F)cn1 (stereo partly shown) [Example 1]: 8.6
- COc1cc(-c2ccc(C3CCc4ccc([C@H](C5CC5)[C@H](C)C(=O)O)cc4O3)cc2CN2CCC2)c(F)cn1 (mixture of isomers) [Example 10]: 193

Now look at this entry.
Query: EC50; subject: COc1cc(-c2ccc(C3CCc4ccc([C@H](C5CC5)[C@H](C)C(=O)O)cc4O3)cc2C(C)N(C)C)c(F)cn1 (stereo partly shown) [Example 3]
18

* * *

pEC50 values, listed per item
Target: human GPR40 (Homo sapiens, UniProt O14842)
Construct: expressed in transfected cells; host or cells: HEK cells stably expressing the aequorin reporter
Sequence (O14842 whole entry): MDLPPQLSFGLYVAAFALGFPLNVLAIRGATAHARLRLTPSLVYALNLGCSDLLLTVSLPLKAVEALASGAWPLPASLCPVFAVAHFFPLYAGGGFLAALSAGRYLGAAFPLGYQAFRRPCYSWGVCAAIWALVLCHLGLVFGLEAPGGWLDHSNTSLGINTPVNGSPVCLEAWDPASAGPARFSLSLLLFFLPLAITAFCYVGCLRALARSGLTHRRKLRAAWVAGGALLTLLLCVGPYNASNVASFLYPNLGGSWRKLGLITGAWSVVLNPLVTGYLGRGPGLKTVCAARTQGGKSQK
Test: Inositol Phosphate Turnover (IP1) Assay 2
Assay type: cell-based
Conditions: HEK cells stably expressing human GPR40; 15,000 cells per well; compound acoustically transferred; CisBio IP-One kit
# pEC50 = -log10(concentration in molar units)

Quick check: pEC50 of COc1cc(-c2ccc(C3CCc4ccc([C@H](C5CC5)[C@H](C)C(=O)O)cc4O3)cc2CN2CCOCC2)c(F)cn1 (single isomer, unassigned) [Example 11b] ?
8.62

// returns reported pEC50 for input COc1cc(-c2ccc(C3CCc4ccc([C@H](C5CC5)[C@H](C)C(=O)O)cc4O3)cc2CN2CC[C@H](F)C2)c(F)cn1 (stereo partly drawn) [Example 15]
8.96

What measured pEC50 goes with COc1cc(-c2ccc(C3CCc4ccc([C@H](C5CC5)[C@H](C)C(=O)O)cc4O3)cc2CN2C3CCC2CC3)c(F)cn1 (stereo partly drawn) [Example 69] ?
8.59

What value of measured pEC50 is listed for COc1cc(-c2ccc(C3CCc4ccc([C@H](C5CC5)[C@H](C)C(=O)O)cc4O3)cc2CN2CC[C@H](OC)C2)c(F)cn1 (stereo partly drawn) [Example 19] ?
8.19

Please give the measured pEC50 for this molecule: COc1cc(-c2ncc([C@@H]3CCc4ccc([C@H](C5CC5)[C@H](C)C(=O)O)cc4O3)nc2CN2CCCC2)c(F)cn1 (single isomer, unassigned) [Example 110a]
6.35

Record request: pEC50 value, item COc1cc(-c2ccc([C@@H]3CCc4ccc([C@H](C5CC5)[C@H](C)C(=O)O)cc4O3)cc2CN2CCC[C@H]2C)c(F)cn1 [Example 141]
8.96

* * *

pEC50: recorded values
Molecular target: human GPR40 (Homo sapiens, UniProt O14842)
Construct: expressed in transfected cells; host or cells: HEK cells stably expressing the aequorin reporter
Assay: Inositol Phosphate Turnover (IP1) Assay 3
Assay type: cell-based
Settings: HEK cells stably expressing human GPR40
A value of pEC50 is the negative decimal logarithm of a concentration given in moles per litre.

Past entries and their recorded results:
* COc1cc(-c2ccc(C3CCc4ccc([C@H](C5CC5)[C@H](C)C(=O)O)cc4O3)cc2CN2[C@H](C)CCC[C@H]2C)c(F)cn1 (stereo partly drawn) | 9.40
* COc1cc(-c2ccc(C3CCc4ccc([C@H](C5CC5)[C@H](C)C(=O)O)cc4O3)cc2CN(C(C)C)C(C)C)c(C#N)cn1 (stereo partly drawn) | 10.00

What does the record list as pEC50 for COc1cc(-c2ccc(C3CCc4ccc([C@H](C5CC5)[C@H](C)C(=O)O)cc4O3)cc2CN2CCCCC2(C)C)ccn1 (stereo partly drawn) ?
8.51

* * *

Molecular target: human GPR40 (Homo sapiens)
Construct: expressed in transfected cells; host or cells: HEK cells stably expressing the aequorin reporter
Experiment: Inositol Phosphate Turnover (IP1) Assay 3
Format: cell-based
Conditions: HEK cells stably expressing human GPR40
EC50 reference

Look over these answered cases.
- COc1cc(-c2ccc(C3CCc4ccc([C@H](C5CC5)[C@H](C)C(=O)O)cc4O3)c(CN3CCCC3)c2)c(F)cn1 (single isomer, unassigned) [Example 123a]: 91 nM
- COc1cc(-c2ccc(C3CCc4ccc([C@H](C5CC5)[C@@H](C)C(=O)O)cc4O3)cc2CN(C)C(C)(C)C)c(F)cn1 (stereo partly drawn) [Example 227]: 14 nM

Then this compound:
Would you mind telling me what EC50 value was observed for COc1cc(-c2ccc(C3CCc4ccc([C@H](C5CC5)[C@H](C)C(=O)O)cc4O3)c(CN3CCC[C@@H]3C)c2)c(F)cn1 (single isomer, unassigned) [Example 129b] ?
36 nM

* * *

Attribute: EC50
Target: human GPR40 (Homo sapiens, UniProt O14842)
Construct: expressed in transfected cells; host or cells: HEK cells stably expressing the aequorin reporter
Assay: Inositol Phosphate Turnover (IP1) Assay 3
Assay type: cell-based
Conditions: HEK cells stably expressing human GPR40
Use nM as the unit, but write only the number.

• CCN(CC)Cc1cc(C2CCc3ccc([C@H](C4CC4)[C@H](C)C(=O)O)cc3O2)ncc1-c1cc(OC)ncc1F (single isomer, unassigned) [Example 86] = 1.4

// EC50 lookup, key: CCN(Cc1cc(-c2cc(OC)ncc2F)ccc1C1CCc2ccc([C@H](C3CC3)[C@H](C)C(=O)O)cc2O1)C(C)C (single isomer, unassigned) [Example 124b]
16

* * *

Biological target: human GPR40 (Homo sapiens, UniProt O14842)
Construct: expressed in transfected cells; host or cells: HEK cells stably expressing the aequorin reporter
Experiment: Inositol Phosphate Turnover (IP1) Assay 3
Type: cell-based
Settings: HEK cells stably expressing human GPR40
# strict inequality: EC50 < 2 nM yields True, everything else yields False

- COc1cc(-c2ccc(C3CCc4ccc([C@H](C5CC5)[C@H](C)C(=O)O)cc4O3)cc2CN2C3CCCC2CC3)ccn1 (stereo partly drawn): False
- CCN(C)Cc1cc(C2CCc3ccc([C@H](C4CC4)[C@H](C)C(=O)O)cc3O2)ccc1-c1cc(OC)ncc1C#N (single isomer, unassigned) [Example 196]: False
- CCN(C)Cc1cc(C2CCc3ccc([C@H](C4CC4)[C@H](C)C(=O)O)cc3O2)ccc1-c1cc(OC)ncc1F (stereo partly drawn): True
- COc1cc(-c2ccc(C3CCc4ccc([C@H](C5CC5)[C@H](C)C(=O)O)c(F)c4O3)cc2CN2CCCC2(C)C)c(F)cn1 (single isomer, unassigned) [Example 206]: True
- CCN(CC)Cc1cc(C2CCc3ccc([C@H](C4CC4)[C@H](C)C(=O)O)c(F)c3O2)ccc1-c1cc(OC)ncc1F (single isomer, unassigned) [Example 205]: False

I'd appreciate it if you could check whether COc1cc(-c2ccc([C@@H]3CCc4ccc([C@H](C5CC5)[C@H](C)C(=O)O)cc4O3)cc2CN(C(C)C)C(C)C)c(F)cn1 has EC50 smaller than 2 nM.
True

* * *

Target: human GPR40 (Homo sapiens)
Construct: expressed in transfected cells; host or cells: HEK cells stably expressing the aequorin reporter
Assay: Inositol Phosphate Turnover (IP1) Assay 3
Format: cell-based
Details: HEK cells stably expressing human GPR40
quantityName: pEC50
Scale explanation: pEC50 corresponds to minus log10 of a concentration expressed in moles per litre.

• COc1cc(-c2ccc(C3CCc4ccc([C@H](C5CC5)[C@H](C)C(=O)O)cc4O3)c(CN3CCCCC3(C)C)c2)ccn1 (single isomer, unassigned) [Example 117a] = 9.40

Kindly state the measured pEC50 obtained for COc1cc(-c2ccc(C3CCc4ccc([C@H](C5CC5)[C@H](C)C(=O)O)cc4O3)cc2CN(C)C(C)(C)C)ccn1 (stereo partly drawn) [Example 288] with human GPR40 (Homo sapiens).
7.68

Write down the reported pEC50 of COc1cc(-c2ccc(C3CCc4ccc([C@H](C5CC5)[C@H](C)C(=O)O)cc4O3)c(CN(C(C)C)C(C)C)c2)c(F)cn1 (single isomer, unassigned) [Example 126a] , test system: human GPR40 (Homo sapiens).
10.30

# value lookup — system human GPR40 (Homo sapiens), readout pEC50, item COc1cc(-c2ccc(C3CCc4ccc([C@H](C5CC5)[C@H](C)C(=O)O)cc4O3)c(CN3[C@H](C)CC[C@@H]3C)c2)ccn1 (single isomer, unassigned) [Example 122b]
6.72

Which measured pEC50 belongs to COc1cc(-c2ccc(C3CCc4ccc([C@H](C5CC5)[C@H](C)C(=O)O)cc4O3)cc2CN2CCCC23CCC3)c(F)cn1 (stereo partly drawn) , tested on human GPR40 (Homo sapiens)?
9.70

Reported pEC50 for human GPR40 (Homo sapiens), given COc1cc(-c2ccc(C3CCc4ccc([C@H](C5CC5)[C@H](C)C(=O)O)cc4O3)c(CN3[C@H](C)CC[C@H]3C)c2)ccn1 (single isomer, unassigned) [Example 116b] ?
9.00
